system: SW-620 colon; experiment: NCI-60 one-dose screen, 48 h; details: 10 µM unless noted
This is part of a sample that, as a whole, favours compounds with a hit. Of some 83,000 tested, about 20% had one in any assay. Activity calls are given as the source filed them. How the source made its calls: active means growth percent below 10; inactive means the rest.
Choose the fitting class; nothing outside true (active), false (inactive) is accepted.

Please indicate how the test categorized O=C(O)CC1CCCCC1c1ccccc1 (stereo not given) .
false

Please indicate how the test categorized `COCCCNc1nc(NC(=O)c2cc(OC)cc(OC)c2)cc(-c2cccnc2)n1` .
false

Please indicate how the test categorized O=C1CC(c2ccccc2)Cc2nc3ccc(Cl)cc3cc21 (stereo not given) .
false

Please indicate how the test categorized `CC1(C)[C@@H](NOCCCN)CC[C@]2(C)[C@H]3C(=O)C=C4[C@@H]5C[C@](C)(C(=O)O)CC[C@]5(C)CC[C@@]4(C)[C@]3(C)CC[C@@H]12` .
true

Please indicate how the test categorized `CC(C)C1=NOC(=O)C1=Cc1cn(-c2ccccc2)nc1-c1ccc(Cl)cc1` .
false

----------
tested on: KM12 colon; test: NCI-60 one-dose screen, 48 h; details: 10 µM unless noted
The panel holds about 83,000 compounds, 20% with a hit somewhere; the sample as a whole holds those more often. Activity calls are given as the source filed them. Rule for the calls: active = growth percent below 10; inactive = the rest.
Choose the fitting class; nothing outside 1.0 = active, 0.0 = inactive is accepted.

Please indicate how the test categorized `CCCC[C@@H](C=O)NC(=O)[C@H](CC(C)C)NC(=O)[C@H](CC(C)C)NC(=O)OCc1ccccc1` .
1.0

Please indicate how the test categorized `N#C/C(C(=O)c1ccccc1)=C1/C(=O)Nc2ccc(Br)cc21` .
0.0

Please indicate how the test categorized `Cc1ncc(C(=O)Nc2ccc(CN3CCN(C)CC3)c(C(F)(F)F)c2)cc1C#Cc1c(N)ncc2ccc(C#N)cc12` .
1.0

Please indicate how the test categorized `CCn1cc(-c2ccnc(NCCNS(=O)(=O)c3cccc4ccccc34)c2)c(-c2cccc(O)c2)n1` .
0.0

Please indicate how the test categorized O=C1/C(=C\c2cn(CC(O)CN3CCCCC3)c3ccccc23)c2ccccc2N1c1c(Cl)cccc1Cl (centres undefined) .
1.0

Please indicate how the test categorized `COc1ccc(/C=C/C=C\C(=O)c2ccc(-n3ccnc3)cc2)cc1` .
0.0

Please indicate how the test categorized `COc1cc(C)cc2oc3oc(=O)c(C(=O)c4cc5cc(Br)ccc5o4)cc3c(=O)c12` .
0.0

Please indicate how the test categorized `O=C(Nc1ccccc1)Nc1ccc(C(=O)/C=C/c2ccc(N3CCCC3)cc2)cc1` .
0.0

Please indicate how the test categorized CCOC(=O)C(c1ccccc1)N1C(=O)c2ccccc2C1=O (centres undefined) .
0.0

Please indicate how the test categorized `O=C(O)c1cn(C2CC2)c2cc(N3CCN(Cc4cc(Cl)ccc4O)CC3)c(F)cc2c1=O` .
0.0

Please indicate how the test categorized `O=C(CSc1nccc(Nc2ccc(S(=O)(=O)Nc3ccccn3)cc2)n1)c1ccc(Cl)cc1` .
0.0

Please indicate how the test categorized `C=C(C)[C@@H]1CC[C@]2(C)[C@H](CC[C@@H]3[C@@H]([C@@](C)(O)CCC=C(C)C)CC[C@]32C)[C@@]1(C)CCC(=O)N1CCN(C)CC1` .
1.0

Please indicate how the test categorized `Fc1ccc(NC(=S)c2ccccc2)cc1` .
0.0

Please indicate how the test categorized `CC1(C)CC(=O)c2c(ccc(C(=O)C[C@@H](N)CO)c2N)O1` .
0.0

Please indicate how the test categorized `CCOc1ccc2sc(NS(=O)(=O)c3ccc(N)cc3)nc2c1` .
0.0

Please indicate how the test categorized `COC(=O)[C@]1(C)CC[C@]2(C)CC[C@]3(C)C(=CC(=O)[C@@H]4[C@@]5(C)CCC(=O)NC(C)(C)[C@@H]5CC[C@]43C)[C@@H]2C1` .
1.0

Please indicate how the test categorized `Cn1cc(-c2noc(-c3cn(C)c4ncc(F)cc34)n2)c2cc(Br)ccc21` .
0.0

Please indicate how the test categorized `Brc1ccc2c(c1)CN(C1CCCCC1)CO2` .
0.0

Please indicate how the test categorized `Cc1ccc2c(n1)C(=O)C(Cl)=C(Nc1ccc(N3CCN(C)CC3)cc1)C2=O` .
0.0

Please indicate how the test categorized `COC(=O)c1cc(O)c2c(c1C(=O)OC)C[C@H]1[C@@H]3CC=C4C[C@@H](O)CC[C@]4(C)[C@H]3CC[C@]21C` .
0.0

Please indicate how the test categorized O=C1CC(c2ccccc2)Cc2nc3ccc(Cl)cc3cc21 (centres undefined) .
1.0

Please indicate how the test categorized CCN(CC)CCCC(C)Nc1c2ccc(C)cc2nc2ccc(OC)cc12 (centres undefined) .
0.0

Please indicate how the test categorized `O=S(=O)(NCCNc1nccc(-c2c(-c3cccc(F)c3)nc3occn23)n1)c1ccc(C(F)(F)F)cc1` .
0.0

Please indicate how the test categorized `N#C/C(C(=O)c1ccccc1)=C1/C(=O)Nc2ccccc21` .
0.0

Please indicate how the test categorized `[2H]C1([2H])CCN(C(=O)C2CC2)c2cc(NS(=O)(=O)c3ccc(-c4cccc(C(N)=O)c4)cc3)ccc21` .
0.0

Please indicate how the test categorized `Clc1ccc2nc(-c3ccc(-c4ccc(/C=N/NC5=NCCN5)cc4)s3)cn2c1` .
0.0

Please indicate how the test categorized `C1=C[C@H]2O[C@@H]1c1ccc3[nH]ccc3c12` .
0.0

Please indicate how the test categorized `COc1ccc(C(=O)CCC(=O)O)cc1` .
0.0

Please indicate how the test categorized `O=C(Nc1cccnc1)c1ccc2ccc3ccc(C(=O)Nc4cccnc4)nc3c2n1` .
1.0

Please indicate how the test categorized `CN(C)CCOc1ccc(/C(=C(/CCCl)c2ccccc2)c2ccccc2)cc1` .
1.0

Please indicate how the test categorized O=c1[nH]cnc2c1ccn2C1OC(CO)C(O)C1O (centres undefined) .
0.0

Please indicate how the test categorized `C[C@@H](NC(=O)[C@@H](CC(=O)N1CCC(N2CCCCC2)CC1)N1C(=O)[C@@H](N2C(=O)OC[C@@H]2c2ccccc2)[C@H]1/C=C/c1cccc(Cl)c1)c1ccccc1` .
0.0

Please indicate how the test categorized `O=C1Nc2ccccc2/C1=C/C(=O)c1ccc(N2CCCC2)cc1` .
0.0

Please indicate how the test categorized `C[n+]1c2ccccc2nc2c(N)cc(N)cc21` .
0.0

Please indicate how the test categorized `CC(C)(C)c1cc(C(=O)N2CCC(C(=O)NCCN)CC2)cc(C(C)(C)C)c1` .
0.0

Please indicate how the test categorized `Cc1ccc(S(=O)(=O)Oc2ccc([N+](=O)[O-])cc2[N+](=O)[O-])cc1` .
0.0

Please indicate how the test categorized `Cc1ccc(-c2cc(-c3ccc(C)cc3)nc(N3CCN(CCNc4ccnc5cc(Cl)ccc45)CC3)n2)cc1` .
0.0

Please indicate how the test categorized `N#C/C(=C(/O)CCCO)c1nc2ccccc2c(=O)[nH]1` .
0.0

Please indicate how the test categorized `O=C(Nc1cc(-c2cccnc2)nc(NCCCN2CCOCC2)n1)c1cc(Br)cc(C(F)(F)F)c1` .
0.0
